Molecular target: IGFR-1 (Homo sapiens)
Construct: Kinases are expressed as either kinase domains or full length constructs; made in house
Sequence (P08069 31-1367): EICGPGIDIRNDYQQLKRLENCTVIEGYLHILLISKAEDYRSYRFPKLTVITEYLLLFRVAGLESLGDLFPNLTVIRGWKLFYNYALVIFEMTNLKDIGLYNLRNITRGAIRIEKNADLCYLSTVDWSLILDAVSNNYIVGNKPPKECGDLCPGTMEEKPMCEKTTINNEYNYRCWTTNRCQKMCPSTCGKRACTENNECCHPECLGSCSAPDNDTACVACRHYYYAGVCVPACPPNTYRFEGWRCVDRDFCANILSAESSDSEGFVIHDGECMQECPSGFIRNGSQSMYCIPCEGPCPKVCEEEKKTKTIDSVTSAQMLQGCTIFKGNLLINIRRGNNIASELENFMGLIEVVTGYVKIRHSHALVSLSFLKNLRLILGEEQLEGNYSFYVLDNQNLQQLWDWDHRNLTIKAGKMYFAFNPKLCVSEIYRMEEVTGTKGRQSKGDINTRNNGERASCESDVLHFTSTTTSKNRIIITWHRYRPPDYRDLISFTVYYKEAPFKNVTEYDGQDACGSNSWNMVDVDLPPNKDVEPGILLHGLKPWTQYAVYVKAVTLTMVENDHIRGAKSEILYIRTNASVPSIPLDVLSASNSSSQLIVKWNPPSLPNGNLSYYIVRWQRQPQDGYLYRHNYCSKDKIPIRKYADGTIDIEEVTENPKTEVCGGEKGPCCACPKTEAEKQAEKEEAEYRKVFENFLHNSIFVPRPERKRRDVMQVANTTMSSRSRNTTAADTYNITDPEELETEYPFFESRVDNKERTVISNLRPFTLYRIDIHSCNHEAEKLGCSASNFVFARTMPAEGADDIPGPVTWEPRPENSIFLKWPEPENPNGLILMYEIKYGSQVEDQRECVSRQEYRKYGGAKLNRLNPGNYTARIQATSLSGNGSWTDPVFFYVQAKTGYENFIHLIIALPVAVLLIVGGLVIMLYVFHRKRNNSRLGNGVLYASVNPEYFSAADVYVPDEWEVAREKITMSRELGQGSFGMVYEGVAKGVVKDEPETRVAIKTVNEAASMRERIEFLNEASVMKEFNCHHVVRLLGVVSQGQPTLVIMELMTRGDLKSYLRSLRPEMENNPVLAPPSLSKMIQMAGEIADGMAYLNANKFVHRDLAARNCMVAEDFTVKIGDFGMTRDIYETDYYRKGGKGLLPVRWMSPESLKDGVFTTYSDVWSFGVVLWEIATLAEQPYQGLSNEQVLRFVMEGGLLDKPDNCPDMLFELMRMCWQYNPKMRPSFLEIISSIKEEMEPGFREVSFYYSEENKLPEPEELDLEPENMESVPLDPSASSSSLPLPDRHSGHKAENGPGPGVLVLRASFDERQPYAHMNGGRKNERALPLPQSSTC
Assay: Kinase inhibition assay, IGFR-1 (Table 2)
Format: biochemical
Settings: Table 2, kinase inhibition class
measurement_type: IC50

Query (compound): CCN(CC)CCOc1cc(Nc2ncnc(-n3c(N)nc4ccccc43)n2)ccc1OC ; field requested: IC50
< 0.892 µM

// query: COc1cccc(Nc2ncnc(-n3c(N)nc4ccccc43)n2)c1
< 1.2 µM

// query: COc1cc(CNc2ncnc(N(C)c3cccc(Cl)c3)n2)cc(OC)c1OC
> 10.8 µM

// query: COc1cc(Nc2ncnc(-n3c(NC4CCc5ccccc54)nc4ccccc43)n2)cc(OC)c1OC (stereo not shown)
> 8.83 µM

Every entry's value here was drawn from patent US7074789B2.
